test system: U2OS; assay: Multiplex assay against U2OS; format: toxicity, cell-based; conditions: human, 48 h, 1 µM, compound concentration 1 uM, replicate 2
Entries and their measured Population Fragmented Nuclei (%) follow.
Respond numerically; units are % and should not be typed.

| compound | Population Fragmented Nuclei (%) |
| --- | --- |
| CC(C)OC(=O)N1CCC(Oc2ncnc3c2cnn3-c2ccc(S(C)(=O)=O)cc2F)CC1 | 5 |

INPUT: I have this compound here, "CCc1ccc(OCc2ccccc2C(=O)Nc2ccc3nc(C)cc(N)c3c2)cc1.Cl" , and I need its recorded Population Fragmented Nuclei (%).
OUTPUT: 29

INPUT: I have this compound here, "CNC(=O)Nc1ccc(-c2nc(N3CC4CCC(C3)O4)c3cnn(C4CCC5(CC4)OCCO5)c3n2)cc1" , and I need its recorded Population Fragmented Nuclei (%).
OUTPUT: 14

INPUT: I have this compound here, "COC(=O)C1=C(C)NC(C)=C(C(=O)OCCCN2CCC(c3ccccc3)(c3ccccc3)CC2)[C@H]1c1cccc([N+](=O)[O-])c1" , and I need its recorded Population Fragmented Nuclei (%).
OUTPUT: 15
